# target: ATP-dependent translocase ABCB1 (Homo sapiens, UniProt P08183)
# Sequence (P08183 whole entry): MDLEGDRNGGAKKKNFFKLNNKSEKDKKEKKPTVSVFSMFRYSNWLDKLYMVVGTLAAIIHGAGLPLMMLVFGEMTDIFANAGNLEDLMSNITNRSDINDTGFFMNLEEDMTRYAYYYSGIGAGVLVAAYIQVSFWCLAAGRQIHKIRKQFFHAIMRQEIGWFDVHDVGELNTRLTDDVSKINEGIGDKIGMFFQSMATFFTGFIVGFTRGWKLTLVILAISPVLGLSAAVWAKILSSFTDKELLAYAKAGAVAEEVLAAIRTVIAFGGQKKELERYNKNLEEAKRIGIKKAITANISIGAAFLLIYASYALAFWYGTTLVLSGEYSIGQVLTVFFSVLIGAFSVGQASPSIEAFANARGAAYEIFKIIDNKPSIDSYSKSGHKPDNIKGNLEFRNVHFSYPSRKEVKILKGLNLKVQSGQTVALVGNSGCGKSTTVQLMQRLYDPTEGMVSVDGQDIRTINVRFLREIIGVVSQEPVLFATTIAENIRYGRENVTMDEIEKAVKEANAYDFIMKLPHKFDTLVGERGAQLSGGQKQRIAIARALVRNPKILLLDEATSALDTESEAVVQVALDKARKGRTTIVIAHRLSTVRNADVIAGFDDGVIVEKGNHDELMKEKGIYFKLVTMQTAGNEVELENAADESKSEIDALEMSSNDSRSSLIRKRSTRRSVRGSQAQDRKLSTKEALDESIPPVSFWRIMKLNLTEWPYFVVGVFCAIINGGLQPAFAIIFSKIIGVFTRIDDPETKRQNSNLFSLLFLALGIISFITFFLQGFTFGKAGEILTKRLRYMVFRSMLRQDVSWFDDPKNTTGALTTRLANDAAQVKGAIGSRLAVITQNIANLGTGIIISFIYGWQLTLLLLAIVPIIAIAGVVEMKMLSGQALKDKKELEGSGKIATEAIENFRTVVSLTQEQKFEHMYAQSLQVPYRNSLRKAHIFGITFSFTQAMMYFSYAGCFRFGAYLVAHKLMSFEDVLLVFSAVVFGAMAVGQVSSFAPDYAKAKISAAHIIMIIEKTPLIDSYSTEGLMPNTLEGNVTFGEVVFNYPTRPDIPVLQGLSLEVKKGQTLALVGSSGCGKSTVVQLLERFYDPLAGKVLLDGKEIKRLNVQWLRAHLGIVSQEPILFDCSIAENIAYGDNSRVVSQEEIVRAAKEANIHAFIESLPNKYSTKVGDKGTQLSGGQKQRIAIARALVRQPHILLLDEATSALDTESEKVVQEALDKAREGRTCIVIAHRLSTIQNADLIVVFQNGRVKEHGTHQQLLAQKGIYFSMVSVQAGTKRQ
# procedureDetails: Reversal of P-gp mediated multidrug resistance in human DU145-TxR cells overexpressing P-gp assessed as potentiation of paclitaxel-induced cytotoxicity by measuring fold reduction paclitaxel IC50 at 10 uM after 48 hrs by MTT assay relative to parent compound
# Assay type: cell-based
Recorded fold change (FC) by entry
The answer should be written as a number, with no unit following it.

Prompt: Fill blank: measured fold change (FC) of the compound `Cc1cc(C)c(-c2cc(NC(=O)CSCC(=O)NC34CC5CC(CC(C5)C3)C4)n(-c3ccccc3)n2)cc1C` is ____.
Response: 1.6

====

# target: ATP-dependent translocase ABCB1 (Homo sapiens)
# procedureDetails: Reversal of P-gp mediated multidrug resistance in human DU145-TxR cells overexpressing P-gp assessed as potentiation of paclitaxel-induced cytotoxicity by measuring fold reduction paclitaxel IC50 at 10 uM after 48 hrs by MTT assay relative to paclitaxel alone
# Type: cell-based
readout: fold change (FC)
The answer should be written as a number, with no unit following it.

Previously resolved entries follow.
INSERT INTO measurements (givensmiles, readout, measuredresult) VALUES
  ('Cc1cc(C)c(-c2cc(NC(=O)CSCC(=O)NCc3ccc(F)cc3)n(-c3ccccc3)n2)cc1C', 'fold change (FC)', 16),
  ('Cc1cc(C)c(-c2cc(NC(=O)CSCC(=O)c3ccc4c(c3)Cc3ccccc3-4)n(-c3ccccc3)n2)cc1C', 'fold change (FC)', 37);

Prompt: Fill blank: measured fold change (FC) of the compound `Cc1cc(C)c(-c2cc(NC(=O)CSc3cccc(NC(=O)c4cncc(Br)c4)c3)n(-c3ccccc3)n2)cc1C` is ____.
Response: 353

====

# target: ATP-dependent translocase ABCB1 (Homo sapiens, UniProt P08183)
# procedureDetails: Reversal of P-gp mediated multidrug resistance in human DU145-TxR cells overexpressing P-gp assessed as potentiation of paclitaxel-induced cytotoxicity by measuring fold reduction paclitaxel IC50 at 10 uM after 48 hrs by MTT assay relative to paclitaxel alone
# Format: cell-based
Recorded fold change (FC) by entry
The answer should be written as a number, with no unit following it.

INSERT INTO assay_data (givensmiles, readout, measuredresult) VALUES
  ('Cc1cc(C)c(-c2cc(NC(=O)CSCC(=O)Nc3ccc4ccccc4c3)n(-c3ccccc3)n2)cc1C', 'fold change (FC)', 1060);

Prompt: Fill blank: measured fold change (FC) of the compound `COc1cc(NC(=O)CSCC(=O)Nc2cc(-c3cc(C)c(C)cc3C)nn2-c2ccccc2)cc(OC)c1OC` is ____.
Response: 30286

Prompt: Fill blank: measured fold change (FC) of the compound `Cc1cc(C)c(-c2cc(NC(=O)CSCC(=O)Nc3ccc4ncsc4c3)n(-c3ccccc3)n2)cc1C` is ____.
Response: 2118

Prompt: Fill blank: measured fold change (FC) of the compound `Cc1cc(C)c(-c2cc(NC(=O)CSCC(=O)N3c4ccccc4CCc4ccccc43)n(-c3ccccc3)n2)cc1C` is ____.
Response: 530

Prompt: Fill blank: measured fold change (FC) of the compound `Cc1cc(C)c(-c2cc(NC(=O)CSCC(=O)NC34CC5CC(CC(C5)C3)C4)n(-c3ccccc3)n2)cc1C` is ____.
Response: 163

Prompt: Fill blank: measured fold change (FC) of the compound `Cc1cc(C)c(-c2cc(NC(=O)CSc3nnc4c(n3)[nH]c3ccccc34)n(-c3ccccc3)n2)cc1C` is ____.
Response: 125

Prompt: Fill blank: measured fold change (FC) of the compound `Cc1cc(C)c(-c2cc(NC(=O)CSCC(=O)NC(c3ccccc3)c3ccccc3)n(-c3ccccc3)n2)cc1C` is ____.
Response: 193

Prompt: Fill blank: measured fold change (FC) of the compound `Cc1cc(C)c(-c2cc(NC(=O)CSc3n[nH]c(C4CC4)n3)n(-c3ccccc3)n2)cc1C` is ____.
Response: 101
